- Test system: Veronica persica (VERPE)
- procedure_details: B. Herbicidal post-emergence efficacy, VERPE
- Format: in vivo
- measurement_setup: 320 g/ha
Examples of compounds with documented Post-emergence efficacy against VERPE follow.
quantity_measured: Post-emergence efficacy against VERPE (%)

> print(dat)
                                    compound  numeric.value
 1  O=S(=O)(CCCC(F)(F)F)Oc1c(Cl)cccc1Oc1ncc(Br)cn1            100
 2    O=S(=O)(Oc1ccccc1Oc1ncc(Cl)cn1)C1CCCC1             90
 3      CC(C)S(=O)(=O)Oc1ccccc1Oc1ncc(Cl)cn1             90
 4  Cc1cccc(Oc2ncc(Br)cn2)c1OS(=O)(=O)CCCC(F)(F)F             90
 5  Cc1cccc(Oc2ncc(Cl)cn2)c1OS(=O)(=O)CCC(F)(F)F             90
 6  O=S(=O)(CC1CC(F)(F)C1)Oc1c(Br)cccc1Oc1ncc(Cl)cn1            100
 7       C=CCS(=O)(=O)Oc1ccccc1Oc1ncc(Cl)cn1             90
 8  O=S(=O)(CCCC(F)F)Oc1c(F)cccc1Oc1ncc(Cl)cn1             90
 9  Cc1cccc(Oc2ncc(Cl)cn2)c1OS(=O)(=O)CCCC(F)(F)C(F)(F)F            100
10  O=S(=O)(CCC1CC1)Oc1c(F)cccc1Oc1ncc(Cl)cn1             90
11  Cc1cccc(Oc2ncc(Cl)cn2)c1OS(=O)(=O)CCCC(F)(F)F            100
12    CC(C)CCS(=O)(=O)Oc1ccccc1Oc1ncc(Cl)cn1            100
13   O=S(=O)(CCCCl)Oc1cccc(F)c1Oc1ncc(Cl)cn1            100
14  O=S(=O)(CC1CC(F)(F)C1)Oc1c(F)cccc1Oc1ncc(Cl)cn1             90
15  O=S(=O)(CCC(F)(F)F)Oc1c(Cl)cccc1Oc1ncc(Cl)cn1             90
16  O=S(=O)(CCCC(F)(F)C(F)(F)F)Oc1c(Br)cccc1Oc1ncc(Cl)cn1            100
17     O=S(=O)(CCCCCl)Oc1ccccc1Oc1ncc(Cl)cn1            100
18  Cc1cccc(Oc2ncc(Cl)cn2)c1OS(=O)(=O)CC1CC1(Cl)Cl (stereo not shown)            100
19      O=S(=O)(CCCCl)Oc1ccccc1Oc1ccc(Cl)cn1             90
20     O=S(=O)(CC1CC1)Oc1ccccc1Oc1ncc(Cl)cn1            100
21       CCCCS(=O)(=O)Oc1ccccc1Oc1ncc(Cl)cn1             90
22  O=S(=O)(CCCC(F)(F)F)Oc1c(Cl)cccc1Oc1ncc(Cl)cn1             90
23       O=S(=O)(CCCCl)Oc1ccccc1Oc1ncc(F)cn1            100
24  O=S(=O)(CCC(F)(F)F)Oc1c(F)cccc1Oc1ncc(Cl)cn1             90
25  O=S(=O)(CC(F)(F)F)Oc1ccccc1Oc1ncc(Cl)cn1             90
26  O=S(=O)(CCC(F)=C(F)F)Oc1c(Cl)cccc1Oc1ncc(Cl)cn1            100
27  O=S(=O)(CC=C(Cl)Cl)Oc1c(Br)cccc1Oc1ncc(Cl)cn1            100
28  O=S(=O)(CCC(F)(F)F)Oc1c(F)cccc1Oc1ncc(Br)cn1             90
29          CS(=O)(=O)Oc1ccccc1Oc1ncc(Cl)cn1             90
30       COCCS(=O)(=O)Oc1ccccc1Oc1ncc(Cl)cn1             90
31  O=S(=O)(CCC(F)=C(F)F)Oc1c(Br)cccc1Oc1ncc(Cl)cn1            100
32  CCC(C)S(=O)(=O)Oc1ccccc1Oc1ncc(Cl)cn1 (stereo not shown)            100
33      O=S(=O)(CCCCl)Oc1ccccc1Oc1ncc(Cl)cn1            100
34  N#Cc1cccc(Oc2ncc(Cl)cn2)c1OS(=O)(=O)CC1CC(F)(F)C1            100
35  O=S(=O)(CC1CC1(Cl)Cl)Oc1c(Br)cccc1Oc1ncc(Cl)cn1 (stereo not shown)            100
36        CCCS(=O)(=O)Oc1ccccc1Oc1ncc(Cl)cn1            100
37  Cc1cccc(Oc2ncc(Cl)cn2)c1OS(=O)(=O)CC1CC(F)(F)C1            100

The measurements presented in this section are drawn from patent US20240174618A1.
